Target: mGluR4 (Homo sapiens)
Experiment: mGluR4 potentiation assay (Table I): response to EC20 agonist in presence of compound
Type: cell-based
Conditions: potentiation of mGluR4 agonist response
Sequence (Q14833 whole entry): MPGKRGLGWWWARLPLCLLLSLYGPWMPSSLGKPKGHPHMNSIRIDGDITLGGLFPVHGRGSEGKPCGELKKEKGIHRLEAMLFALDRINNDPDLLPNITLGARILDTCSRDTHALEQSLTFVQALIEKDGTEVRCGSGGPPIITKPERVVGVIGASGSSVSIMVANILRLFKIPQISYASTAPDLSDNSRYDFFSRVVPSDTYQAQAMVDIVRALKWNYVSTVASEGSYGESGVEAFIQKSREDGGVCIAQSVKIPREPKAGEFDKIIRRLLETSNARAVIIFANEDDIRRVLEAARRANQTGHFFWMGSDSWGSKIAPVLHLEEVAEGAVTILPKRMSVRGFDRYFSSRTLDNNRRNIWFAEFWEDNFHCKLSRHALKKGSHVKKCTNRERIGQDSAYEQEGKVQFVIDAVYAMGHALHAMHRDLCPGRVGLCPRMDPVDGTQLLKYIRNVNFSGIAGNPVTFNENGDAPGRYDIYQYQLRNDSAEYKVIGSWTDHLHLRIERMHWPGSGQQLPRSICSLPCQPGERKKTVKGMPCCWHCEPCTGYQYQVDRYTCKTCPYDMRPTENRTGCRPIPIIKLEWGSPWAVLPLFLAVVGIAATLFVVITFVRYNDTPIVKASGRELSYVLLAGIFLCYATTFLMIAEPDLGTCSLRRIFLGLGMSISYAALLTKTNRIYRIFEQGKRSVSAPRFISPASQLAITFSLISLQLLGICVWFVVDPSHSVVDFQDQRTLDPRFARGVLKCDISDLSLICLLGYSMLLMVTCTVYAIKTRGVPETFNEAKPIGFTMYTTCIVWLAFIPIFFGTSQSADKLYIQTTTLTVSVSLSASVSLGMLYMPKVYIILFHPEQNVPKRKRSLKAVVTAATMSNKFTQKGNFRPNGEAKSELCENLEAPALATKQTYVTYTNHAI
As shown below, each of these compounds has a reported EC50 value.
Numeric only. Scale: nM

Examples with answers:
mol_smiles: O=C(Nc1ccn(S(=O)(=O)c2ccccc2OC(F)(F)F)c1)c1ccccn1
property_measured: EC50
test_value: 203
//
mol_smiles: O=C(Nc1ccn(S(=O)(=O)Cc2cc(Cl)cc(Cl)c2)c1)c1ccccn1
property_measured: EC50
test_value: 3830
//
mol_smiles: CC(C)Cc1ccc(S(=O)(=O)n2ccc(NC(=O)c3ccccn3)c2)cc1
property_measured: EC50
test_value: 258

Data request: Item under review: `O=C(Nc1ccn(S(=O)(=O)Cc2ccccc2F)c1)c1ccccn1` . Reported EC50?
Data returned: 473

Data request: Name the reported EC50 value associated with the compound `Cc1ccccc1CS(=O)(=O)n1ccc(NC(=O)c2ccccn2)c1`
Data returned: 1130

====

Molecular target: mGluR4 (Homo sapiens)
Test: human mGluR4 potentiation in transfected CHO cells, Ca2+-sensitive fluorescent dye
Assay type: cell-based
Set-up: expressed in transfected cells; host or cells: CHO cells
Conditions: unit inferred, read-out: hEC50
Sequence (Q14833 33-912): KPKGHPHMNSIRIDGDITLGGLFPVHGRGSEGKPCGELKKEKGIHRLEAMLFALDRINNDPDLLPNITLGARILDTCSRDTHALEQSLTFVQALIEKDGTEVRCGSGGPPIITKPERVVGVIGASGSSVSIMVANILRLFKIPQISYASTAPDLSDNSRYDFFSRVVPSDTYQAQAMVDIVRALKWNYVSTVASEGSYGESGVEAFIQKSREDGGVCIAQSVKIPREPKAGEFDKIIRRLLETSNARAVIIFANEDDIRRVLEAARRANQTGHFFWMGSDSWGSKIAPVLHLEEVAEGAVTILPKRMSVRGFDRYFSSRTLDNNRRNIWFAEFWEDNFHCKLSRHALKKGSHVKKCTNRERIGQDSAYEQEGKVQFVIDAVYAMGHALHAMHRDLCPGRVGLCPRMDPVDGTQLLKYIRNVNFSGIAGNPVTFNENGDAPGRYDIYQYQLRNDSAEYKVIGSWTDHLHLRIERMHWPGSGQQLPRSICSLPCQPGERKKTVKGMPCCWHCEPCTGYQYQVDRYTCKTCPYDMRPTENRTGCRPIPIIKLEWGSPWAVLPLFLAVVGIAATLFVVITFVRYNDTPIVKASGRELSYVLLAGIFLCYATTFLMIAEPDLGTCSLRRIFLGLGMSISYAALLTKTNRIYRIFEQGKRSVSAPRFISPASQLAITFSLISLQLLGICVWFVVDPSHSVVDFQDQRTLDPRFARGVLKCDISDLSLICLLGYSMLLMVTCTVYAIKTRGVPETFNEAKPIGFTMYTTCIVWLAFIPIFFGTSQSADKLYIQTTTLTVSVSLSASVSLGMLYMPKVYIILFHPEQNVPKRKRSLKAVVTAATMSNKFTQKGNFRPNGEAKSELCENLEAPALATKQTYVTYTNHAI
property_measured: pEC50
The scale used: pEC50 is minus the common logarithm of the concentration in molar units.

As a guide, the following entries are already answered.
compound: Cc1ccc(S(=O)(=O)n2ccc(NC(=O)c3ccco3)c2)cc1
target_or_system: mGluR4 (Homo sapiens)
test_value: 6.07

compound: Cc1ccc(S(=O)(=O)n2ccc(NC(=O)c3nccs3)c2)cc1
target_or_system: mGluR4 (Homo sapiens)
test_value: 6.46

compound: O=C(Nc1ccn(S(=O)(=O)c2ccc(C(F)(F)F)nc2)c1)c1ccccn1
target_or_system: mGluR4 (Homo sapiens)
test_value: 6.18

Data request: Using the record for `Cc1ccnc(S(=O)(=O)n2ccc(NC(=O)c3ccccn3)c2)c1` , report its pEC50.
Data returned: 5.89

Data request: Requested read-out: pEC50. Entry: CC(c1ccccc1F)S(=O)(=O)n1ccc(NC(=O)c2ccccn2)c1 (centres unmarked)
Data returned: 6.40

Data request: Would you mind telling me what pEC50 value was observed for `Cc1cc(S(=O)(=O)n2ccc(NC(=O)c3ccccn3)c2)cnc1Cl` ?
Data returned: 6.60

Data request: I have this compound here, `Cc1ccc(S(=O)(=O)n2ccc(NC(=O)c3ccccn3)c2)o1` , and I need its recorded pEC50.
Data returned: 6.59

Data request: Request the reported pEC50 associated with `O=C(Nc1ccn(S(=O)(=O)c2ccc3c(c2)CCO3)c1)c1ccccn1`
Data returned: 7.11

====

The following compounds are listed with their measured % Glu Max values.
Molecular target: mGluR4 (Homo sapiens, UniProt Q14833)
Assay: mGluR4 potentiation assay (Table I): response to EC20 agonist in presence of compound
Type: cell-based
Details: maximum extent of potentiation

Illustrative cases are given below, each with its answer.
compound: O=C(Nc1ccn(S(=O)(=O)Cc2ccc(F)cc2F)c1)c1ccccn1 [Example 32]
% Glu Max: 159%
--
compound: CC(C)Cc1ccc(S(=O)(=O)n2ccc(NC(=O)c3ccccn3)c2)cc1 [Example 17]
% Glu Max: 30%
--
compound: O=C(Nc1ccn(S(=O)(=O)Cc2ccc(Cl)cc2Cl)c1)c1ccccn1 [Example 31]
% Glu Max: 206%

Data request: # get_value(readout='% Glu Max', item= Cc1ccc(CS(=O)(=O)n2ccc(NC(=O)c3ccccn3)c2)cc1C [Example 33] )
Data returned: 178%

Data request: Reported % Glu Max for O=C(Nc1ccn(S(=O)(=O)Cc2ccccc2F)c1)c1ccccn1 [Example 29] : what is it?
Data returned: 161%

Data request: Form field: reported % Glu Max of O=C(Nc1ccn(S(=O)(=O)c2cccc(-c3ccccc3)c2)c1)c1ccccn1 [Example 12]
Data returned: 122%

Data request: // returns reported % Glu Max for input Cc1cccc(CS(=O)(=O)n2ccc(NC(=O)c3ccccn3)c2)c1 [Example 38]
Data returned: 289%

Data request: Given the entry O=C(Nc1ccn(S(=O)(=O)c2ccc(Cl)cc2)c1)c1ccccn1 [Example 21] , report its measured % Glu Max.
Data returned: 215%

Data request: Look up % Glu Max: N#Cc1cccc(S(=O)(=O)n2ccc(NC(=O)c3ccccn3)c2)c1 [Example 13]
Data returned: 104%

Data request: Recorded % Glu Max of O=C(Nc1ccn(S(=O)(=O)c2ccc(F)cc2)c1)c1ccccn1 [Example 19] , please.
Data returned: 137%

Data request: For the compound O=C(Nc1ccn(S(=O)(=O)c2cccc(Cl)c2)c1)c1ccccn1 [Example 14] , what % Glu Max is on record?
Data returned: 139%

Data request: Entry Cc1ccc(S(=O)(=O)n2ccc(NC(=O)c3ccccn3)c2)cc1 [Example 20] : reported % Glu Max = ?
Data returned: 188%

Data request: // returns reported % Glu Max for input O=C(Nc1ccn(S(=O)(=O)Cc2ccc(C(F)(F)F)cc2)c1)c1ccccn1 [Example 37]
Data returned: 158%

Data request: Name the recorded % Glu Max for O=C(Nc1ccn(S(=O)(=O)Cc2cc(Cl)cc(Cl)c2)c1)c1ccccn1 [Example 35] .
Data returned: 156%

Data request: Please report the recorded % Glu Max for O=C(Nc1ccn(S(=O)(=O)Cc2cccc(F)c2)c1)c1ccccn1 [Example 24] .
Data returned: 140%

Data request: Given the compound O=C(Nc1ccn(S(=O)(=O)Cc2cccc(Cl)c2)c1)c1ccccn1 [Example 25] , what is its reported % Glu Max?
Data returned: 132%

Data request: Need % Glu Max, item O=C(Nc1ccn(S(=O)(=O)C2CCCCC2)c1)c1ccccn1 [Example 22]
Data returned: 189%

====

Biological target: mGluR4 (Homo sapiens)
Assay: mGluR4 potentiation assay (Table I): response to EC20 agonist in presence of compound
Type: cell-based
Details: potentiation of mGluR4 agonist response
The reader will find reported pEC50 values listed item by item below.
Scale explanation: pEC50 corresponds to minus log10 of a concentration expressed in moles per litre.

molecule: O=C(Nc1ccn(S(=O)(=O)c2cccc(Cl)c2)c1)c1ccccn1 [Example 14]
pEC50: 6.97

molecule: O=C(Nc1ccn(S(=O)(=O)Cc2cccc(Cl)c2)c1)c1ccccn1 [Example 25]
pEC50: 6.08

Data request: Entry O=C(Nc1ccn(S(=O)(=O)Cc2cccc(C(F)(F)F)c2)c1)c1ccccn1 [Example 27] : reported pEC50 = ?
Data returned: 5.76

====

Target: mGluR4 (Homo sapiens, UniProt Q14833)
Experiment: mGluR4 potentiation assay (Table I): response to EC20 agonist in presence of compound
Type: cell-based
Conditions: maximum extent of potentiation
Recorded % Glu Max for the following compounds
Reply with just the number (in %).

Data request: I'd like to know its % Glu Max. The compound in question is O=C(Nc1ccn(S(=O)(=O)c2ccc(OC(F)F)cc2)c1)c1ccccn1 [Example 16]
Data returned: 151

Data request: Bench note: what % Glu Max did O=C(Nc1ccn(S(=O)(=O)c2ccc(C(F)(F)F)cc2)c1)c1ccccn1 [Example 23] show?
Data returned: 85

Data request: Requested field: % Glu Max. Item: O=C(Nc1ccn(S(=O)(=O)c2ccc(OC(F)(F)F)cc2)c1)c1ccccn1 [Example 18]
Data returned: 93

Data request: I'd like to know its % Glu Max. The compound in question is Cc1cccc(S(=O)(=O)n2ccc(NC(=O)c3ccccn3)c2)c1 [Example 15]
Data returned: 175

Data request: Given the entry O=C(Nc1ccn(S(=O)(=O)Cc2cccc(C(F)(F)F)c2)c1)c1ccccn1 [Example 27] , report its measured % Glu Max.
Data returned: 117

Data request: Reported % Glu Max, compound O=C(Nc1ccn(S(=O)(=O)Cc2ccccc2Cl)c1)c1ccccn1 [Example 30] : ____
Data returned: 163

Data request: Give its % Glu Max value. Item: O=C(Nc1ccn(S(=O)(=O)c2ccccc2OC(F)(F)F)c1)c1ccccn1 [Example 7]
Data returned: 90

Data request: Look up % Glu Max for this compound: Cc1ccccc1CS(=O)(=O)n1ccc(NC(=O)c2ccccn2)c1 [Example 28]
Data returned: 164

Data request: What measured % Glu Max goes with O=C(Nc1ccn(S(=O)(=O)Cc2ccc(Cl)c(Cl)c2)c1)c1ccccn1 [Example 34] ?
Data returned: 159

====

pEC50 values for the molecules below.
Molecular target: UniProt Q14833
Assay: mGluR4 potentiation assay (Table I): response to EC20 agonist in presence of compound
Assay type: cell-based
Conditions: potentiation of mGluR4 agonist response
Schema: pEC50 number; meaning minus log10 of the concentration expressed in molar units.

Known results for molecules:
mol_smiles: O=C(Nc1ccn(S(=O)(=O)Cc2ccc(C(F)(F)F)cc2)c1)c1ccccn1
target_or_system: UniProt Q14833
test_value: 6.81

mol_smiles: O=C(Nc1ccn(S(=O)(=O)Cc2ccc(F)cc2F)c1)c1ccccn1
target_or_system: UniProt Q14833
test_value: 6.73

mol_smiles: O=C(Nc1ccn(S(=O)(=O)Cc2cccc(F)c2)c1)c1ccccn1
target_or_system: UniProt Q14833
test_value: 6.23

mol_smiles: Cc1ccc(CS(=O)(=O)n2ccc(NC(=O)c3ccccn3)c2)cc1C
target_or_system: UniProt Q14833
test_value: 6.67

mol_smiles: O=C(Nc1ccn(S(=O)(=O)c2ccc(OC(F)F)cc2)c1)c1ccccn1
target_or_system: UniProt Q14833
test_value: 6.79

Data request: Under UniProt Q14833: pEC50 value of `Cc1cccc(CS(=O)(=O)n2ccc(NC(=O)c3ccccn3)c2)c1` ?
Data returned: 5.84

Data request: For UniProt Q14833, provide pEC50 of `O=C(Nc1ccn(S(=O)(=O)c2cccc(-c3ccccc3)c2)c1)c1ccccn1` please.
Data returned: 5.48

Data request: Param readout = pEC50; param system = UniProt Q14833; param query = `O=C(Nc1ccn(S(=O)(=O)C2CCCCC2)c1)c1ccccn1` ; response: value
Data returned: 5.71

Values compiled from patent US20130338154A1.
